System: SF-295 CNS
Assay: NCI tumour cell line growth inhibition, 48 h
quantity name: TGI

C#C[C@]1(O)CC[C@H]2[C@@H]3CC=C4c5sc(NCc6ccccc6)nc5CC[C@]4(C)[C@H]3CC[C@@]21C    4.08 µM
CCN(CC)CCOc1ccc(C(=C(c2ccccc2)C2CCCC2)c2ccc(OCCN(CC)CC)cc2)cc1    > 16.3 µM
O=c1[nH]c(Sc2sc3ccc(Cl)cc3c2CBr)nc(=S)[nH]1    > 100 µM

Consider the record given below.
Q: Reported TGI, compound CC[C@H](C)[C@H]1NC(=O)[C@@H]([C@H](O)C(C)C)NC(=O)[C@@H](C)N(C)C(=O)[C@H](C)N(C)C(=O)[C@H](CC(C)C)NC(=O)[C@H](CC(C)C)N(C)C(=O)[C@H](C)N(C)C1=O : ____
Ans: 9.17 µM
